The reported numbers originate from patent US20250027068.

Recorded measurements of Enzyme Activity Endpoint Assay: Fc, one per entry
target: pooled human IgG (human IgG1, 2, 3 and 4)
Please give a number only; it is taken to be in ng/µL.

PRT-500 (protein) MVTSVWTKGVTPPADFTQGEDVFHAPYVANQGWYDITKAFDGGDDLLCGAATAGNMLHWWFDQNKEYIEAYLKKHPEKQKIMFGDQELLDVRKAINTKGSQKNSELFNYFRDKAFPNLSARRLGVMPDLVLDMFINGYYLNVTKTQTTDVNRTYQEKDKRGGIFDAVFTRGDQSKLLTSRHDLKNKGLKEISDLIKQELTEGKALGLSHTYANVRINHVINLWGADFDSDGNLKAIYVTDSDSNASIGMKKYFVGVNSAGKVAISAKEIKEDNIGAQVLGLFTLSTGQDIWNQTNLEHHHHHH; 30

Lab note: next protein to report on.
I am curious: what Enzyme Activity Endpoint Assay: Fc value has been reported for PRT-271 (protein) MVTSVWTKGVTPPTDFIYGEDVLHAPYKAGQGWYDITKLFNGKDDLLCGAATAGNMLHWWFDQNKEQIENYLKKHPEKQKINFNGEQMFDVKEAIDTKDSQLDSKLFDYFKEKAFPYLSTKHLGVFPDHVIDMFINGYRLSLTNHGPTPVKRGSKDPRGGIFDAVFTRGDQSKLLTNRHDLKNKTLKEISDLIKQELTEGKALGISHTYANVRINHVINLWGADFDAEGNLEAIYVTDSDSNPSIGMKKYFVGVNSSGKVAISAKEIEEDNIGAQVLGLFTLSTGQDIWNQTN ? 322
